Entry source: patent US8119624B2

target: Full-length glucokinase (beta cell isoform) (Homo sapiens); construct: Full-length glucokinase (beta cell isoform) was His-tagged at N-terminus; His tag (N); made in house; test: Glucokinase biochemical assay (PK/LDH-coupled, NADH depletion at 340 nm): % activation, EC50, % max activation; conditions: 5 mM glucose; GK activation; read-out: EC50
pEC50: −log10 of the molar value.
observation type: pEC50

compound | target | observation type | limit qualifier | obs value
Cn1ccc(NC(=O)c2cc(Oc3ccc(C(=O)NC4CC4)c(F)c3)c3c(c2)OC(C)(C)C3)n1 [Example 73] | Full-length glucokinase (beta cell isoform) (Homo sapiens) | pEC50 | = | 6.41
Cc1ccc(NC(=O)c2cc(Oc3ccc(S(C)(=O)=O)cc3)c3c(c2)OC(C)C3)nc1 (stereo not drawn) [Example 10] | Full-length glucokinase (beta cell isoform) (Homo sapiens) | pEC50 | = | 5.96
Cn1ncc(NC(=O)c2cc(Oc3ccc(-c4ncon4)c(F)c3)c3c(c2)OC(C)(C)C3)n1 [Example 186] | Full-length glucokinase (beta cell isoform) (Homo sapiens) | pEC50 | = | 6.80
CC(C)Oc1cc(C(=O)Nc2ccn(C)n2)cc2c1CC(CN(C)C)O2 (stereo not drawn) [Example 218] | Full-length glucokinase (beta cell isoform) (Homo sapiens) | pEC50 | < | 5.00
Cc1ccc(NC(=O)c2cc(OC3CN(S(C)(=O)=O)C3)c3cc(C)oc3c2)nc1 [Example 326] | Full-length glucokinase (beta cell isoform) (Homo sapiens) | pEC50 | = | 5.68
CO[C@H]1CCN(C(=O)c2ccc(Oc3cc(C(=O)Nc4ccn(C)n4)cc4c3CC(C)(C)O4)cc2F)C1 [Example 60] | Full-length glucokinase (beta cell isoform) (Homo sapiens) | pEC50 | = | 6.57
CNC(=O)c1ncc(Oc2cc(C(=O)Nc3ccn(C)n3)cc3c2CC(C)(C)O3)cn1 [Example 171] | Full-length glucokinase (beta cell isoform) (Homo sapiens) | pEC50 | = | 5.44
CC1Cc2c(Oc3ccc(S(C)(=O)=O)cc3)cc(C(=O)Nc3ccn(C)n3)cc2O1 (single isomer, unassigned; (+)) [Example 13] | Full-length glucokinase (beta cell isoform) (Homo sapiens) | pEC50 | = | 5.74
Cn1ccc(NC(=O)c2cc(Oc3cccc(C(=O)N4CCC4)c3)c3c(c2)OC(C)(C)C3)n1 [Example 37] | Full-length glucokinase (beta cell isoform) (Homo sapiens) | pEC50 | = | 6.05
Cn1ccc(NC(=O)c2cc(Oc3ccc(C(=O)N4CCC4)c(F)c3)c3c(c2)OC(C)(CO)C3)n1 (stereo not drawn) [Example 241] | Full-length glucokinase (beta cell isoform) (Homo sapiens) | pEC50 | = | 7.24
Cc1ccc(NC(=O)c2cc(Oc3ccc(S(C)(=O)=O)c(F)c3)c3c(c2)OC(C)(CO)C3)nc1 (stereo not drawn) [Example 233] | Full-length glucokinase (beta cell isoform) (Homo sapiens) | pEC50 | = | 7.19
COCC1Cc2c(Oc3ccc(C(=O)N4CCC4)c(F)c3)cc(C(=O)Nc3ccn(C)n3)cc2O1 (stereo not drawn) [Example 204] | Full-length glucokinase (beta cell isoform) (Homo sapiens) | pEC50 | = | 5.70
Cn1ccc(NC(=O)c2cc(Oc3cc(F)c(C(=O)N4CCC4)c(F)c3)c3c(c2)OC(C(F)F)C3)n1 (stereo not drawn) [Example 223] | Full-length glucokinase (beta cell isoform) (Homo sapiens) | pEC50 | = | 6.17
CN(CC#N)C(=O)c1ccc(Oc2cc(C(=O)Nc3ccn(C)n3)cc3c2CC(C)(C)O3)cc1F [Example 67] | Full-length glucokinase (beta cell isoform) (Homo sapiens) | pEC50 | = | 7.18
Cc1noc(COc2cc(C(=O)Nc3ccn(C)n3)cc3c2CC(C)(C)O3)n1 [Example 94] | Full-length glucokinase (beta cell isoform) (Homo sapiens) | pEC50 | = | 5.36

----------
Target: Full-length glucokinase (beta cell isoform) (Homo sapiens, UniProt P35557)
Construct: Full-length glucokinase (beta cell isoform) was His-tagged at N-terminus; His tag (N); made in house
Sequence (P35557 1-465): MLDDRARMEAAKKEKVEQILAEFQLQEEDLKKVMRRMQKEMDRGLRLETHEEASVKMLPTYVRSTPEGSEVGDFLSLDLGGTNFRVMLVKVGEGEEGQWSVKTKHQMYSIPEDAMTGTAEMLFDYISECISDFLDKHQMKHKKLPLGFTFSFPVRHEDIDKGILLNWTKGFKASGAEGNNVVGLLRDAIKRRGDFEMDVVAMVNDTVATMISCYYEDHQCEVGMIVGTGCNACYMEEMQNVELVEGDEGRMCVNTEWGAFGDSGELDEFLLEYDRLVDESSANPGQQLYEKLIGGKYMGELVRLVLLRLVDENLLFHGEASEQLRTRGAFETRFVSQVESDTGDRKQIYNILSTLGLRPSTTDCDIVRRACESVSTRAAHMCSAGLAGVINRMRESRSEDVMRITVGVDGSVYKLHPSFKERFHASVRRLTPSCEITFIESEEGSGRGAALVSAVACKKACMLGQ
Assay: Glucokinase biochemical assay (PK/LDH-coupled, NADH depletion at 340 nm): % activation, EC50, % max activation
Settings: 5 mM glucose; fitted maximum activation; read-out: % Max Activation
Listing: Emax of selected molecules

molecule | target | Emax
Cc1ccc(NC(=O)c2cc(Oc3ccc(S(C)(=O)=O)cc3)c3cc(C)sc3c2)nc1 [Example 359] | Full-length glucokinase (beta cell isoform) (Homo sapiens, UniProt P35557) | 70%
CN(C)C(=O)c1ncc(Oc2cc(C(=O)Nc3ccn(C)n3)cc3c2CC(C)(C)O3)cc1F [Example 178] | Full-length glucokinase (beta cell isoform) (Homo sapiens, UniProt P35557) | 147%
C[C@@H](Cc1ccccc1)Oc1cc(C(=O)Nc2ccn(C)n2)cc2c1CC(C)(C)O2 [Example 78] | Full-length glucokinase (beta cell isoform) (Homo sapiens, UniProt P35557) | 149%
CN(C)C(=O)c1ccc(Oc2cc(C(=O)Nc3ccon3)cc3c2CC(C)(C)O3)cc1F [Example 144] | Full-length glucokinase (beta cell isoform) (Homo sapiens, UniProt P35557) | 100%
Cc1ccc(NC(=O)c2cc(Oc3ccc(S(C)(=O)=O)cc3)c3sc(C)cc3c2)nc1 [Example 329] | Full-length glucokinase (beta cell isoform) (Homo sapiens, UniProt P35557) | 113%
Cc1cc2c(Oc3ccc(S(C)(=O)=O)cc3)cc(C(=O)Nc3ccn(C)n3)cc2s1 [Example 360] | Full-length glucokinase (beta cell isoform) (Homo sapiens, UniProt P35557) | 142%
Cn1ccc(NC(=O)c2cc(Oc3ccc(C(=O)N4CCC4)cc3)c3c(c2)OC(C(F)F)C3)n1 (centres unmarked) [Example 226] | Full-length glucokinase (beta cell isoform) (Homo sapiens, UniProt P35557) | 137%
Cc1ccc(NC(=O)c2cc(Oc3ccc(S(C)(=O)=O)cc3)c3oc(C)cc3c2)nc1 [Example 337] | Full-length glucokinase (beta cell isoform) (Homo sapiens, UniProt P35557) | 89%

----------
biological target: Full-length glucokinase (beta cell isoform) (Homo sapiens); construct: Full-length glucokinase (beta cell isoform) was His-tagged at N-terminus; His tag (N); made in house; assay: Glucokinase biochemical assay (PK/LDH-coupled, NADH depletion at 340 nm): % activation, EC50, % max activation; settings: 10 uM compound; 5 mM glucose; % Activation=(Va/Vo−1)×100; read-out: % Activation at 10 uM

smi | activation at 10 µM, %
Cc1cc2c(Oc3ccc(S(C)(=O)=O)cc3)cc(C(=O)Nc3cnn(C)n3)cc2o1 | 145
Cc1ccc(NC(=O)c2cc(Oc3ccc(S(C)(=O)=O)cc3)c3c(c2)OC(C)(C)C3)nn1 | 97.9
Cc1ccc(NC(=O)c2cc(Oc3ccc(S(=O)(=O)N4CCC4)cc3)c3cc(C)oc3c2)nc1 | 61.9
Cc1nnc(NC(=O)c2cc(Oc3ccc(S(C)(=O)=O)cc3)c3c(c2)OC(C)(C)C3)s1 | 121
C=C(C)c1cc2c(C(=O)Nc3ccc(C)cn3)cc(OC(C)C)cc2o1 | 69.2
Cc1cc(NC(=O)c2cc(Oc3ccc(C(=O)N(C)C)c(F)c3)c3c(c2)OC(C)(C)C3)no1 | 47.8
Cc1ccc(NC(=O)c2cc(Oc3ccc(S(C)(=O)=O)cc3)c3cc(Cn4ccnc4C)oc3c2)nc1 | 39.2
Cc1cc2c(Oc3ccc(S(=O)(=O)N(C)C)c(F)c3)cc(C(=O)Nc3cnn(C)n3)cc2o1 | 185
Cn1ncc(NC(=O)c2cc(Oc3ccc(-c4ncon4)cc3)c3c(c2)OC(C)(C)C3)n1 | 198
Cc1ccc(NC(=O)c2cc(Oc3ccc(S(=O)(=O)N(C)C)c(F)c3)c3cc(C)oc3c2)nc1 | 94.6
Cn1ccc(NC(=O)c2cc(Oc3ccc(S(C)(=O)=O)cc3F)c3c(c2)OC(C)(C)C3)n1 | 124
Cc1ccc(NC(=O)c2cc(OC(C)C)cc3oc(C(=O)N4CCC4)cc23)nc1 | -32.1
Cc1nc(COc2cc(C(=O)Nc3ccn(C)n3)cc3c2CC(C)(C)O3)cs1 | 112
Cn1ccc(NC(=O)c2cc(Oc3ccc(S(C)(=O)=O)cc3)cc3c2CC(C)(C)O3)n1 | 40.3
